Listing: Wild oats plant response rating of selected molecules
- Test system: wild oat
- test_method_notes: Test B pre/postemergence wild oat
- Type: in vivo, Avena fatua
- settings: Preemergence, Rate 62 g/ha; scale of 0 to 10 where 0 is no effect and 10 is complete control
value_kind: Wild oats plant response rating

- molecule: "CC(C)=CCn1c(=O)on(C(=O)N(c2ccc(F)cc2)C(C)C)c1=O"
  reported_result: 0
- molecule: "CC(C)N(C(=O)n1oc(=O)n(CCCF)c1=O)c1ccc(F)cc1"
  reported_result: 8
- molecule: "CC(C)N(C(=O)n1oc(=O)n(CC(F)(F)F)c1=O)c1ccc(F)cc1"
  reported_result: 3
- molecule: "Cc1ccccc1-n1c(=O)on(C(=O)N(c2ccc(F)cc2)C(C)C2CC2)c1=O (stereo not drawn)"
  reported_result: 0
- molecule: "CC(C)N(C(=O)n1oc(=O)n(C(CCl)CCl)c1=O)c1ccc(F)cc1"
  reported_result: 0
- molecule: "CC(C)N(C(=O)n1oc(=O)n(CC#C[Si](C)(C)C)c1=O)c1ccc(F)cc1"
  reported_result: 0
- molecule: "CC(C)N(C(=O)n1oc(=O)n(CCCN(C)C)c1=O)c1ccc(F)cc1"
  reported_result: 0
- molecule: "CCn1ncc(Cn2c(=O)on(C(=O)N(c3ccc(F)cc3)C(C)C)c2=O)c1Cl"
  reported_result: 0
- molecule: "CC(C)N(C(=O)n1oc(=O)n(CC2(C)COC2)c1=O)c1ccc(F)cc1"
  reported_result: 1
- molecule: "CC(C)N(C(=O)n1oc(=O)n(C(C)C(=S)N(C)C)c1=O)c1ccc(F)cc1 (stereo not drawn)"
  reported_result: 0
- molecule: "CC(C)N(C(=O)n1oc(=O)n(CC2CC2)c1=O)c1ccc(F)cc1"
  reported_result: 0
- molecule: "Cc1c(-n2c(=O)on(C(=O)N(c3ccc(F)cc3F)C(C)C)c2=O)ccc2ccccc12"
  reported_result: 0
